Source listed as the supplement of paper PMC11451515.

- System: SEM cells
- measurement_protocol: cell viability relative to DMSO control; higher = less cytotoxic
- assay_context: RPMI 5 mM glucose + 10% dialyzed FBS; 48 h; 0.000781 µM

- molecule: "CCCCCCNC(=O)N1\\C=C(F)/C(=O)NC1=O"
  assayed_target: "SEM cells"
  cell viability (%): 126
- molecule: "CC(=O)OC[C@@H]1O[C@H]([C@H](OC(C)=O)[C@@H]1OC(C)=O)N2\\C=C/C(=O)NC2=O"
  assayed_target: "SEM cells"
  cell viability (%): 118
- molecule: "CCCN[C@H]1CCc2nc(N)sc2C1"
  assayed_target: "SEM cells"
  cell viability (%): 89.2
- molecule: "c1cc(-c2cnn3cc(-c4ccc(OCCN5CCCCC5)cc4)cnc23)ccn1"
  assayed_target: "SEM cells"
  cell viability (%): 91.5
- molecule: "O=C(O)CCCCCC(=O)NN=C1CCCC1"
  assayed_target: "SEM cells"
  cell viability (%): 100
- molecule: "CCC(CCCC)COC(=O)C(\\C#N)=C(\\c1ccccc1)c2ccccc2 (configuration not stated)"
  assayed_target: "SEM cells"
  cell viability (%): 88.3
- molecule: "CCCOc1ccc(C(=O)OCCN(CC)CC)cc1N"
  assayed_target: "SEM cells"
  cell viability (%): 80
- molecule: "Cc1cn2cc(C(=O)N(C)CCO)cc(N[C@@H]3CCOc4cccc(C)c43)c2n1"
  assayed_target: "SEM cells"
  cell viability (%): 88.9
- molecule: "CNc1nc(-c2ccc3c(N)n[nH]c3c2)cc(N2C[C@@H](C(=O)NC3CCCCC3)CC[C@H]2C)n1"
  assayed_target: "SEM cells"
  cell viability (%): 80.6
- molecule: "CCN(CC)CCNC(=O)c1c(C)[nH]c(/C=C2\\C(=O)Nc3ccc(F)cc32)c1C"
  assayed_target: "SEM cells"
  cell viability (%): 52.8
- molecule: "COc1cc(C(=O)NC2CCN(C)CC2)ccc1Nc1ncc2c(n1)N(C1CCCC1)CCC(=O)N2C(C)C"
  assayed_target: "SEM cells"
  cell viability (%): 83.4
- molecule: "Nc1ccc(C(=O)c2cc3c(ccc4ccccc43)[nH]2)cc1"
  assayed_target: "SEM cells"
  cell viability (%): 121
